Origin of the recorded values: patent US11389456B2

test: Solubility in aqueous solution (deionized, distilled water); format: physicochemical; settings: kinetic from dmso stock, 1% DMSO, read-out: Aqueous Solubility H2O
measured property: solubility at 1 h (µM)

[a] CCCC(C)c1cccc(Oc2[nH]nnc2C(=O)O)c1 (stereo not shown)
[b] O=C(O)c1[nH]nnc1Oc1ccc(-c2ccc(Cl)c(Cl)c2)cc1
Please tell me which of the two, a or b , has the higher reported solubility at 1 h value. Mark your selection by writing its label. a

---

Assay: Solubility in phosphate buffered saline (PBS), pH 7.4
Format: physicochemical
Details: phosphate buffer (PBS), aqueous buffer, kinetic from dmso stock; phosphate buffered saline pH 7.4, 1% DMSO, 1 hour shaking at room temperature
Procedure: For testing compound solubility in phosphate buffered saline (PBS), compound stock solutions were prepared at 10 mM in 100% DMSO. For testing in aqueous solution, the phosphate buffer was replaced with deionized, distilled water. Eleven grams Na2HPO4 (FW: 141.96 g/mol) and 3.5 g NaH2PO4.2H2O (FW: 156.03 g/mol) was added to 1 L Milli-Q water and adjusted to a pH to 7.4 with phosphoric acid or sodium hydroxide. For incubation, media were preheated to 37° C. […]
measured property: solubility at 1 h (µM)

[
  {
    "compound": "O=C(O)c1nn[nH]c1Oc1ccc(Cl)cc1",
    "uom": "µM",
    "solubility at 1 h": 121
  },
  {
    "compound": "CC(C)Cc1ccc(Oc2[nH]nnc2C(=O)O)cc1",
    "uom": "µM",
    "solubility at 1 h": 104
  },
  {
    "compound": "CS(=O)(=O)c1ccc(-c2cccc(Oc3[nH]nnc3C(=O)O)c2)cc1",
    "uom": "µM",
    "solubility at 1 h": 91.8
  },
  {
    "compound": "O=C(O)c1nn[nH]c1Sc1ccc2ccccc2c1",
    "uom": "µM",
    "solubility at 1 h": 121
  },
  {
    "compound": "O=C(O)c1nn[nH]c1Oc1ccc(-c2ccc3ccccc3c2)cc1",
    "uom": "µM",
    "solubility at 1 h": 89.3
  },
  {
    "compound": "O=C(O)c1nn[nH]c1Oc1ccc2ccccc2c1",
    "uom": "µM",
    "solubility at 1 h": 90.8
  },
  {
    "compound": "CCC(CC)c1cccc(Oc2[nH]nnc2C(=O)O)c1",
    "uom": "µM",
    "solubility at 1 h": 109
  },
  {
    "compound": "Cc1cc(Oc2[nH]nnc2C(=O)O)ccc1Br",
    "uom": "µM",
    "solubility at 1 h": 96.8
  },
  {
    "compound": "O=C(O)c1nn[nH]c1Oc1ccc(-c2ccc(Br)cc2)cc1",
    "uom": "µM",
    "solubility at 1 h": 93.7
  },
  {
    "compound": "CCCC(C)c1ccc(Oc2[nH]nnc2C(=O)O)cc1 (stereo not shown)",
    "uom": "µM",
    "solubility at 1 h": 112
  }
]
